# EXPERIMENTAL SYSTEM: human CGT (ceramide galactosyltransferase), CHO/CGT lysate (Homo sapiens, UniProt Q16880)
# Construct: Full-length human CGT cDNA was cloned into the BamH1/Xho1 site of pcDNA3.1 (+); expressed in transfected cells; host or cells: Chinese hamster ovary (CHO) cells; lysate prepared with M-PER
# Sequence (Q16880 21-541): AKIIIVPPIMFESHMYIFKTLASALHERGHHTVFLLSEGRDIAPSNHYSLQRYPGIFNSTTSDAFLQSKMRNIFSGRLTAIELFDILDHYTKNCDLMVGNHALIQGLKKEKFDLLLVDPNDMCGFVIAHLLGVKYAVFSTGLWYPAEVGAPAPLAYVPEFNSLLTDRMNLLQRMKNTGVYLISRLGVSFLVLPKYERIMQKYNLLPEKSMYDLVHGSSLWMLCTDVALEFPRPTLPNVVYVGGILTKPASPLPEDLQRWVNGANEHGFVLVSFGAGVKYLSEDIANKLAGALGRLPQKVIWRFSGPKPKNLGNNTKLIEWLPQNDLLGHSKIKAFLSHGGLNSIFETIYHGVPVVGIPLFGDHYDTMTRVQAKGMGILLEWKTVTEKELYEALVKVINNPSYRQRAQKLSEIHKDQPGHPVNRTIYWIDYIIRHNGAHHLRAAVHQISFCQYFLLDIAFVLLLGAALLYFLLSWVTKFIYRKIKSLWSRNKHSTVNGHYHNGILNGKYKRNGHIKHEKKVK
# EXPERIMENT: CGT enzyme assay, LC-MS/MS readout (Table 1 ranges without asterisk)
# Format: biochemical
# CONDITIONS: LC-MS/MS method (range without asterisk)
Structures can show the parent of a compound that is named as a salt.
For each record, write down the corresponding IC50.

Per the record, CC(C)Oc1ccc2cc(C(=O)C(=O)N[C@H](C(=O)N3C4CCC3CC(N)C4)C(F)(F)c3ccc(Br)cc3)ccc2c1 (stereo partly drawn) [Compound 9-1, trifluoroacetate] has IC50 of 10 to 30 µM

Measured IC50, CC(C)Oc1ccc2cc(S(=O)(=O)N[C@H](C(=O)N3C4CCC3CC(N)C4)C(F)(F)c3ccc(Br)cc3)ccc2c1 (stereo partly drawn) [Compound 1-1] : 1 to 10 µM

Lab note: measured IC50 of CC[C@H](C)Oc1ccc2cc(S(=O)(=O)N[C@H](C(=O)N3C4CCC3CC(N)C4)C(F)(F)c3ccc(Br)cc3)ccc2c1 (stereo partly drawn) [Compound 13-3] was 1 to 10 µM

So, CC(C)Oc1ccc2cc([C@@H](O)C(=O)N[C@@H](C(=O)N3C4CCC3CC(N)C4)C(F)(F)c3ccc(Br)cc3)ccc2c1 (stereo partly drawn) [Compound 19-4, trifluoroacetate] ? Its IC50 was 30 to 100 µM

// sample NC1CC2CCC(C1)N2C(=O)C(NS(=O)(=O)c1ccc2cc(OC3CCCC3)ccc2c1)C(F)(F)c1ccc(Br)cc1 (stereo not drawn) [Compound 5, trifluoroacetate] , its IC50 was 1 to 10 µM

Input NC1CC2CCC(C1)N2C(=O)[C@H](NS(=O)(=O)c1ccc(OCc2ccc(Cl)cc2)cc1)C(F)(F)c1ccc(Br)cc1 (stereo partly drawn) [Compound 15-2] . Output IC50: 30 to 100 µM

Note to self: IC50 recorded for CC(C)Oc1ccc2cc(S(=O)(=O)N[C@H](C(=O)N3C4CCC3CC(N)C4)C(F)(F)c3ccc(Cl)cc3)ccc2c1 (stereo partly drawn) [Compound 8-1, trifluoroacetate] was 1 to 10 µM

Memo: NC1CC2CCC(C1)N2C(=O)[C@@H](NS(=O)(=O)c1ccc2cc(Oc3ccccn3)ccc2c1)C(F)(F)c1ccc(Br)cc1 (stereo partly drawn) [Compound 10-1, trifluoroacetate] , reported IC50: 30 to 100 µM

Reported IC50 ( CC(C)Oc1ccc2cc(S(=O)(=O)N[C@H](C(=O)N3CCC(N)CC3)C(F)(F)c3ccc(Br)cc3)ccc2c1Br [Compound 119-1] ) = 1 to 10 µM

Measured IC50 of CC(C)COc1ccc2cc(S(=O)(=O)N[C@@H](C(=O)N3C4CCC3CC(N)C4)C(F)(F)c3ccc(Br)cc3)ccc2c1 (stereo partly drawn) [Compound 7-2] : 30 to 100 µM

Recorded IC50 (compound NC1CC2CCC(C1)N2C(=O)[C@@H](NS(=O)(=O)c1cccc(OCc2ccc(F)cc2)c1)C(F)(F)c1ccc(Br)cc1 (stereo partly drawn) [Compound 17-1, trifluoroacetate] ): 30 to 100 µM

IC50 reported for this compound CC(C)Oc1ccc2cc([C@H](O)C(=O)N[C@@H](C(=O)N3C4CCC3CC(N)C4)C(F)(F)c3ccc(Br)cc3)ccc2c1 (stereo partly drawn) [Compound 19-6, trifluoroacetate] : 30 to 100 µM

Lab note: measured IC50 of CC(C)Oc1ccc2cc([C@H](O)C(=O)N[C@H](C(=O)N3C4CCC3CC(N)C4)C(F)(F)c3ccc(Br)cc3)ccc2c1 (stereo partly drawn) [Compound 19-3, trifluoroacetate] was 1 to 10 µM

// recorded IC50 for NC1CC2CCC(C1)N2C(=O)C(NS(=O)(=O)c1ccc(-c2ccc(F)cc2)cc1)C(F)(F)c1ccc(Br)cc1 (stereo not drawn) [Compound 3] : 10 to 30 µM

For record NC1CC2CCC(C1)N2C(=O)[C@@H](NS(=O)(=O)c1ccc(Oc2ccc(Cl)cn2)cc1)C(F)(F)c1ccc(Br)cc1 (stereo partly drawn) [Compound 18-1, trifluoroacetate] the listed IC50 is 10 to 30 µM

Just so you know, measured IC50 for CCC(CC)COc1ccc(S(=O)(=O)N[C@@H](C(=O)N2C3CCC2CC(N)C3)C(F)(F)c2ccc(Br)cc2)cc1 (stereo partly drawn) [Compound 2-2] came out at 30 to 100 µM

Notebook: NC1CC2CCC(C1)N2C(=O)[C@H](NS(=O)(=O)c1ccc(-c2ccc(F)cc2)cc1)C(F)(F)c1ccc(Br)cc1 (stereo partly drawn) [Compound 3-2] , IC50 read as 30 to 100 µM

The recorded IC50 for CC(C)Oc1ccc2cc(S(=O)(=O)N[C@@H](C(=O)N3C4CCC3CC(N)C4)C(F)(F)c3ccc(Cl)cc3)ccc2c1 (stereo partly drawn) [Compound 8-2, trifluoroacetate] is 10 to 30 µM

Reported IC50 for CCCCOc1ccc(S(=O)(=O)N[C@H](C(=O)N2C3CCC2CC(N)C3)C(F)(F)c2ccc(Br)cc2)cc1 (stereo partly drawn) [Compound 22-1] was 1 to 10 µM

IC50 recorded for this compound, CCC(CC)COc1ccc(S(=O)(=O)N[C@H](C(=O)N2C3CCC2CC(N)C3)C(F)(F)c2ccc(Br)cc2)cc1 (stereo partly drawn) [Compound 2-1] , is 1 to 10 µM

Reported IC50 for CC(C)Oc1ccc2cc(S(=O)(=O)N[C@@H](C(=O)N3C4CCC3CC(N)C4)C(F)(F)c3ccc(Br)cc3)ccc2c1 (stereo partly drawn) [Compound 1-2] was 10 to 30 µM

response.value for NC1CC2CCC(C1)N2C(=O)[C@H](NS(=O)(=O)c1ccc2cc(OCc3ccccc3)ccc2c1)C(F)(F)c1ccc(Br)cc1 (stereo partly drawn) [Compound 24-2] (field: IC50) = 30 to 100 µM

Sample NC1CC2CCC(C1)N2C(=O)[C@H](NS(=O)(=O)c1cccc(OCc2ccc(F)cc2)c1)C(F)(F)c1ccc(Br)cc1 (stereo partly drawn) [Compound 17-2] ; IC50 observed: 30 to 100 µM

Briefly, IC50 measured for NC1CC2CCC(C1)N2C(=O)[C@@H](NS(=O)(=O)c1ccc(Oc2ccc(F)cc2)cc1)C(F)(F)c1ccc(Br)cc1 (stereo partly drawn) [Compound 25-1, trifluoroacetate] : 1 to 10 µM
